Target: I55V/N2.12
Test: FP
Where no end group is shown, it is not given here.

binder: GYQDYEPEA (also: TAMRA fluorophore, position not given here) [TAMRA-labeled α-synuclein peptide]
readout.units: nM
Kd: 5.7
